test: AUC (infinity) in MRP2-deficient Wistar rat at 5 mg/kg, po by LC-MS/MS analysis; format: ADME, organism-based; set-up: time infinity, dose 5 mg/kg, route oral; conditions: plasma
QUANTITY KIND: AUC(0-inf) (ng·h/mL)
Write it as a number; the unit ng·h/mL goes unstated.

Q: Need AUC(0-inf), item O=C(O)c1cc(/N=N/c2ccc(S(=O)(=O)Nc3ccccn3)cc2)ccc1O
A: 462

====

assay: Oral bioavailability in wild-type Wistar rat at 5 mg/kg by LC-MS/MS analysis; format: ADME, organism-based; settings: in vivo
QUANTITY KIND: bioavailability

Q: Need bioavailability, item O=C(O)c1cc(/N=N/c2ccc(S(=O)(=O)Nc3ccccn3)cc2)ccc1O [SULFASALAZINE]
A: 3.8%

====

assay: Tmax in MRP2-deficient Wistar rat at 20 mg/kg, po by LC-MS/MS analysis; type: ADME, organism-based; parameters: dose 20 mg/kg, route oral; details: in vivo
QUANTITY KIND: Tmax (h)
Write it as a number; the unit h goes unstated.

Q: Need Tmax, item Nc1ccc(S(=O)(=O)Nc2ccccn2)cc1 [SULFAPYRIDINE]
A: 4

====

experiment: Clearance in BCRP knockout Sprague-Dawley rat at 1 mg/kg, iv by LC-MS/MS analysis; details: in vivo
QUANTITY KIND: clearance (L/h/kg)
Write it as a number; the unit L/h/kg goes unstated.

Q: Need clearance, item CC(=O)O[C@H]1C(=O)[C@@]2(C)[C@H]([C@H](OC(=O)c3ccccc3)[C@]3(O)C[C@H](OC(=O)[C@H](O)[C@@H](NC(=O)c4ccccc4)c4ccccc4)C(C)=C1C3(C)C)[C@]1(OC(C)=O)CO[C@@H]1C[C@@H]2O
A: 6.1

====

experiment: Half life in MRP2-deficient Wistar rat at 5 mg/kg, po by LC-MS/MS analysis; type: ADME, organism-based; parameters: dose 5 mg/kg, route oral; settings: in vivo
QUANTITY KIND: half-life

Q: Need half-life, item O=C(O)c1cc(/N=N/c2ccc(S(=O)(=O)Nc3ccccn3)cc2)ccc1O
A: 2.3 h

====

assay: Volume of distribution at steady state in MRP2 knockout Sprague-Dawley rat at 5 mg/kg, iv by LC-MS/MS analysis; type: ADME, organism-based; parameters: dose 5 mg/kg, route intravenous; details: in vivo, read-out: Vdss
QUANTITY KIND: Vd (L/kg)
Write it as a number; the unit L/kg goes unstated.

Q: Need Vd, item O=C(O)c1cc(/N=N/c2ccc(S(=O)(=O)Nc3ccccn3)cc2)ccc1O [SULFASALAZINE]
A: 1.3

====

assay: Volume of distribution at steady state in wild-type Wistar rat at 5 mg/kg, iv by LC-MS/MS analysis; format: ADME, organism-based; set-up: dose 5 mg/kg, route intravenous; conditions: in vivo, read-out: Vdss
QUANTITY KIND: Vd (L/kg)
Write it as a number; the unit L/kg goes unstated.

Q: Need Vd, item O=C(O)c1cc(/N=N/c2ccc(S(=O)(=O)Nc3ccccn3)cc2)ccc1O
A: 0.244

====

experiment: AUC (infinity) in MRP2 knockout Sprague-Dawley rat at 20 mg/kg, po by LC-MS/MS analysis; format: ADME, organism-based; design: time infinity, dose 20 mg/kg, route oral; details: plasma
QUANTITY KIND: AUC(0-inf)
Field note: include the unit after the figure.

Q: Need AUC(0-inf), item O=C(O)c1cc(/N=N/c2ccc(S(=O)(=O)Nc3ccccn3)cc2)ccc1O
A: 635 ng·h/mL

====

test: Cmax in MDR1A knockout Sprague-Dawley rat at 5 mg/kg, po by LC-MS/MS analysis; type: ADME, organism-based; parameters: dose 5 mg/kg, route oral; conditions: in vivo
QUANTITY KIND: Cmax (ng/mL)
Write it as a number; the unit ng/mL goes unstated.

Q: Need Cmax, item CC(=O)O[C@H]1C(=O)[C@@]2(C)[C@H]([C@H](OC(=O)c3ccccc3)[C@]3(O)C[C@H](OC(=O)[C@H](O)[C@@H](NC(=O)c4ccccc4)c4ccccc4)C(C)=C1C3(C)C)[C@]1(OC(C)=O)CO[C@@H]1C[C@@H]2O
A: 145

====

assay: Half life in BCRP knockout Sprague-Dawley rat at 20 mg/kg, po by LC-MS/MS analysis; type: ADME, organism-based; design: dose 20 mg/kg, route oral; conditions: in vivo
QUANTITY KIND: half-life (h)
Write it as a number; the unit h goes unstated.

Q: Need half-life, item O=C(O)c1cc(/N=N/c2ccc(S(=O)(=O)Nc3ccccn3)cc2)ccc1O
A: 1.9

====

assay: AUC (infinity) in MRP2 knockout Sprague-Dawley rat at 5 mg/kg, po by LC-MS/MS analysis; format: ADME, organism-based; set-up: time infinity, dose 5 mg/kg, route oral; details: plasma
QUANTITY KIND: AUC(0-inf) (ng·h/mL)
Write it as a number; the unit ng·h/mL goes unstated.

Q: Need AUC(0-inf), item CC(=O)O[C@H]1C(=O)[C@@]2(C)[C@H]([C@H](OC(=O)c3ccccc3)[C@]3(O)C[C@H](OC(=O)[C@H](O)[C@@H](NC(=O)c4ccccc4)c4ccccc4)C(C)=C1C3(C)C)[C@]1(OC(C)=O)CO[C@@H]1C[C@@H]2O
A: 622

====

assay: Half life in wild-type Sprague-Dawley rat at 20 mg/kg, po by LC-MS/MS analysis; assay type: ADME, organism-based; parameters: dose 20 mg/kg, route oral; settings: in vivo
QUANTITY KIND: half-life (h)
Write it as a number; the unit h goes unstated.

Q: Need half-life, item O=C(O)c1cc(/N=N/c2ccc(S(=O)(=O)Nc3ccccn3)cc2)ccc1O
A: 2.6

====

experiment: Half life in MDR1A knockout Sprague-Dawley rat at 1 mg/kg, iv by LC-MS/MS analysis; type: ADME, organism-based; design: dose 1 mg/kg, route intravenous; conditions: in vivo
// reported half-life for each item listed
Write it as a number; the unit h goes unstated.

COMPOUND	half-life / h
CN(C)C(=O)C(CCN1CCC(O)(c2ccc(Cl)cc2)CC1)(c1ccccc1)c1ccccc1 [LOPERAMIDE]	1.5

Shifting focus to the compound that follows.
Q: Need half-life, item CC(=O)O[C@H]1C(=O)[C@@]2(C)[C@H]([C@H](OC(=O)c3ccccc3)[C@]3(O)C[C@H](OC(=O)[C@H](O)[C@@H](NC(=O)c4ccccc4)c4ccccc4)C(C)=C1C3(C)C)[C@]1(OC(C)=O)CO[C@@H]1C[C@@H]2O [PACLITAXEL]
A: 12.2
